- assay comment: in vivo
- condition notes: C57BL/6, mouse, iv, 1 mg/kg
outcome measure: C0 at 24 h (ng/mL)
Give the value, in units of ng/mL, as a plain number.

Requested read-out: C0 at 24 h. Entry: C[C@](O)(CN1CC2CC(C1)N2c1ccc(C#N)cc1F)C(=O)Nc1cnc(C#N)c(C(F)(F)F)c1
1060

---

- assay comment: in vivo
- condition notes: C57BL/6, mouse, iv, 1 mg/kg
outcome measure: clearance at 24 h

Requested read-out: clearance at 24 h. Entry: C[C@](O)(CN1CC2CC(C1)N2c1ccc(C#N)cc1F)C(=O)Nc1cnc(C#N)c(C(F)(F)F)c1
37.8 mL/min/kg

---

- assay comment: in vivo
- condition notes: C57BL/6, mouse, brain, iv, 1 mg/kg
outcome measure: Kp at 24 h

Requested read-out: Kp at 24 h. Entry: C[C@](O)(CN1CC2CC(C1)N2c1ccc(C#N)cc1F)C(=O)Nc1cnc(C#N)c(C(F)(F)F)c1
0.45

---

- assay comment: in vivo
- condition notes: C57BL/6, mouse, iv, 1 mg/kg
outcome measure: AUC(0-t) at 24 h (ng·h/mL)
Give the value, in units of ng·h/mL, as a plain number.

Requested read-out: AUC(0-t) at 24 h. Entry: C[C@](O)(CN1CC2CC(C1)N2c1ccc(C#N)cc1F)C(=O)Nc1cnc(C#N)c(C(F)(F)F)c1
444

---

- assay comment: in vivo
- condition notes: C57BL/6, mouse, iv, 1 mg/kg
outcome measure: half-life at 24 h (min)
Give the value, in units of min, as a plain number.

Requested read-out: half-life at 24 h. Entry: C[C@](O)(CN1CC2CC(C1)N2c1ccc(C#N)cc1F)C(=O)Nc1cnc(C#N)c(C(F)(F)F)c1
54.6
